Please consider the recorded IC50 for Botulinum neurotoxin type A (Clostridium botulinum, UniProt P0DPI0) in what follows.
Value expressed in µM; do not type the unit.

* O=C(CC12CC3CC(CC(CO)(C3)C1)C2)NO | 3.4

Find the measured IC50 of O=C(CC12CC3CC(C1)CC(c1ccc(-c4ccccc4)cc1)(C3)C2)NO and report it.
0.2

Find the measured IC50 of O=C(CC12CC3CC(CC(Br)(C3)C1)C2)NO and report it.
1.4

Find the measured IC50 of COc1ccc(C23CC4CC(CC(CC(=O)NO)(C4)C2)C3)cc1 and report it.
0.25

Find the measured IC50 of O=C(CC12CC3CC(C1)CC(c1ccc4ccccc4c1)(C3)C2)NO and report it.
0.3

Find the measured IC50 of Cc1ccc(C23CC4CC(CC(CC(=O)NO)(C4)C2)C3)cc1 and report it.
0.25

Find the measured IC50 of O=C(CC12CC3CC(C1)CC(c1ccc([N+](=O)[O-])cc1)(C3)C2)NO and report it.
0.5

Find the measured IC50 of CC(=O)OC12CC3CC(CC(CC(=O)NO)(C3)C1)C2 and report it.
24

Find the measured IC50 of O=C(CC12CC3CC(C1)CC(c1ccc4c(c1)CCCC4)(C3)C2)NO and report it.
1

Find the measured IC50 of O=C(CC12CC3CC(CC(O)(C3)C1)C2)NO and report it.
23

Find the measured IC50 of COC12CC3CC(CC(CC(=O)NO)(C3)C1)C2 and report it.
5.7

Find the measured IC50 of O=C(CC12CC3CC(C1)CC(c1ccc([N+](=O)[O-])cc1[N+](=O)[O-])(C3)C2)NO and report it.
0.4
